src = the Immune Epitope Database (IEDB)

- TESTED_ON: HLA-A*32:01
- ASSAY_PROCEDURE: IEDB peptide-MHC binding, purified MHC/competitive/radioactivity; filed as Kd, often an IC50 or EC50 that approximates it; bounds were set here for any values at or beyond the usual limits of such assays
- TEST_PARAMETERS: source organism: Mammarenavirus lassaense
OUTCOME_MEASURE: Kd (nM)

>>> reported_value("ASPILRFLY")
1100

====

- TESTED_ON: HLA-A*68:02
- ASSAY_PROCEDURE: IEDB peptide-MHC binding, purified MHC/competitive/radioactivity; filed as Kd, often an IC50 or EC50 that approximates it; bounds were set here for any values at or beyond the usual limits of such assays
- TEST_PARAMETERS: source organism: Lassa virus Josiah
pKd: −log10 of the molar value.
OUTCOME_MEASURE: pKd

>>> reported_value("LIALSVLAV")
6.49

====

- TESTED_ON: HLA-B*40:01
- ASSAY_PROCEDURE: IEDB peptide-MHC binding, purified MHC/direct/fluorescence; filed as Kd, often an IC50 or EC50 that approximates it; bounds were set here for any values at or beyond the usual limits of such assays
- TEST_PARAMETERS: source organism: Cryptosporidium parvum
Listed here: items and their measured Kd.
OUTCOME_MEASURE: Kd

>>> reported_value("ISCQIYNAL")
"0.192 µM"
>>> reported_value("VPPTNSINK")
"≥ 20 µM"

====

- TESTED_ON: HLA-A*02:19
- ASSAY_PROCEDURE: IEDB peptide-MHC binding, purified MHC/direct/fluorescence; filed as Kd, often an IC50 or EC50 that approximates it; bounds were set here for any values at or beyond the usual limits of such assays
- TEST_PARAMETERS: source organism: Limestone Canyon virus
pKd: −log10 of the molar value.
OUTCOME_MEASURE: pKd

>>> reported_value("SPVMGVIGF")
"≤ 4.70"

====

- TESTED_ON: HLA-B*40:01
- ASSAY_PROCEDURE: IEDB peptide-MHC binding, purified MHC/competitive/fluorescence; filed as Kd, often an IC50 or EC50 that approximates it; bounds were set here for any values at or beyond the usual limits of such assays
- TEST_PARAMETERS: source organism: Escherichia coli O139:H28 str. E24377A
OUTCOME_MEASURE: Kd (nM)

>>> reported_value("RQGWARAML")
313

====

- TESTED_ON: HLA-A*68:01
- ASSAY_PROCEDURE: IEDB peptide-MHC binding, purified MHC/competitive/radioactivity; filed as Kd, often an IC50 or EC50 that approximates it; bounds were set here for any values at or beyond the usual limits of such assays
- TEST_PARAMETERS: source organism: Mammarenavirus whitewaterense
pKd: −log10 of the molar value.
OUTCOME_MEASURE: pKd

>>> reported_value("SRIFEDLVWK")
6.24

====

- TESTED_ON: HLA-A*69:01
- ASSAY_PROCEDURE: IEDB peptide-MHC binding, purified MHC/direct/fluorescence; filed as Kd, often an IC50 or EC50 that approximates it; bounds were set here for any values at or beyond the usual limits of such assays
- TEST_PARAMETERS: source organism: West Nile virus
pKd: −log10 of the molar value.
OUTCOME_MEASURE: pKd

>>> reported_value("VHREWFMDL")
"≤ 4.70"
